system: SNB-75 CNS; test: NCI-60 one-dose screen, 48 h; settings: 10 µM unless noted
This is part of a sample that, as a whole, favours compounds with a hit. Of some 83,000 tested, about 20% had one in any assay. Active and inactive are the calls of the source. How the source made its calls: active means growth percent below 10; inactive means the rest.
// classify into 1.0 = active, 0.0 = inactive

molecule	studySystem	groupLabel
S=C(NCCc1ccccc1)Nc1ccc(OCc2nc3ccc(Cl)cc3[nH]2)cc1	SNB-75 CNS	0.0

Could you now look at the following molecule, please?
## Input Query: recorded result category for Cc1cccc(-c2ccccc2Oc2ccc3nnc(Cl)n3n2)c1 in this test
## Output 0.0

* * *

Entries and their measured growth follow.
test system: HOP-92 NSCLC; test: NCI-60 one-dose screen, 48 h (100 = growth as untreated, 0 = no growth, -100 = all killed); details: 10 µM unless noted
This is part of a sample that, as a whole, favours compounds with a hit. Of some 83,000 tested, about 20% had one in any assay.
Entry rule: numbers only, all in %.

## Input State, in one line, measured growth of COc1ccc2oc(=O)c(-c3csc(N/N=C(\C)c4cc(OC)c(OC)c(OC)c4)n3)cc2c1
## Output 96.8

* * *

test system: OVCAR-8 ovarian; assay: NCI-60 one-dose screen, 48 h; conditions: 10 µM unless noted
Compounds without any hit were thinned out: in the full panel of roughly 83,000, 20% have a hit. Activity calls are given as the source filed them. How the source made its calls: active means growth percent below 10; inactive means the rest.
Permitted responses: true (1) for active, false (0) for inactive

compound	groupLabel
COc1cc(/C=N/NC(=O)c2ccc(OCc3nc4ccc(Cl)cc4[nH]3)cc2)cc(OC)c1OC	false (0)
COc1ccc(C(=O)c2cc(C(C)=O)c3c(C)cc(C)cn23)cc1	false (0)
Clc1ccc(Nc2nnc(-c3c[nH]c4ccccc34)o2)cc1	false (0)
N/C(=N\c1nc2ccc([N+](=O)[O-])cc2s1)NC(=O)Nc1ccccc1Cl	true (1)
FC(F)(F)CN1CCN(CCn2c(C(F)(F)F)cc3c(Cl)ncnc32)CC1	true (1)
O=C(NNC(=O)c1ccc(OCc2nc3ccc(Cl)cc3[nH]2)cc1)Nc1ccc(Cl)c(Cl)c1	false (0)
O=C(N/N=C/c1ccsc1)c1[nH]c2ccc(Br)cc2c1-c1ccccc1	true (1)
O=C(NNC(=S)NC(=O)c1ccccc1)c1ccc(OCc2nc3ccc(Cl)cc3[nH]2)cc1	true (1)
CS(=O)(=O)Nc1cc(-c2ccc3ncnc(Nc4ccc(OCc5cccnc5)c(Cl)c4)c3c2)cnc1Cl	true (1)
COc1ccc(/C=C/c2nc3ccccc3n3c(-c4cccc([N+](=O)[O-])c4)nnc23)cc1	true (1)

## Input Lab log entry: COc1cc(C2CC(c3ccc(C(F)(F)F)cc3)=Nc3c(N)nc(N)nc3N2)ccc1Oc1nc(Nc2ccc(F)cc2)nc(N(C)C)n1 (centres undefined) — outcome as called in the assay?
## Output false (0)

## Input # fetch the recorded call for O=C1CCC(N2C(=O)c3cccc(NCCOCCOCCOCCC(=O)NCCCC(=O)NC(c4ccc5c(c4)OCO5)c4cc(Cl)c5cccnc5c4O)c3C2=O)C(=O)C1 (centres undefined) here
## Output false (0)

## Input Called result for COc1ccc2[nH]c(O)c(N=NC(=O)c3ccc4nc(-c5ccc(Cl)cc5)[nH]c4c3)c2c1
## Output false (0)

## Input # outcome recorded in this test, key = CS(=O)(=O)c1ccc(-n2nc(C(=O)NCc3ccccc3)cc2-c2ccc(Cl)cc2)cc1
## Output false (0)

## Input Fill in: this test's call for CN(C)c1nc(NCCNS(=O)(=O)c2ccc(C3=Nc4c(N)nc(N)nc4NC(c4ccc(C(F)(F)F)cc4)C3)cc2)nc(N2CCOCC2)n1 (centres undefined) is ___
## Output false (0)

## Input Test call, this compound: CN1C(=O)/C(=C\C(=O)c2cc3ccccc3oc2=O)c2ccccc21
## Output false (0)

## Input Which outcome was assigned to CS(=O)(=O)Nc1cncc(-c2ccc3ncnc(NCc4ccccc4)c3c2)c1 in this test?
## Output false (0)

## Input Which outcome was entered for the compound O=C(CSc1nc2sc3c(c2c(=O)n1-c1ccc(Cl)cc1)CCCC3)NNC(=O)c1ccc(F)cc1 in this test?
## Output false (0)

## Input Please share the test call associated with CCOc1ccccc1[C@H]1C(C(=O)c2ccc(Cl)cc2)C2(N[C@@H]1c1ccccc1)C(=O)Nc1ccccc12 (some centres undefined) .
## Output false (0)

## Input // param item: CN1CCN(CCS(=O)(=O)Nc2cc(-c3ccc4ncnc(Nc5ccc(F)c(Cl)c5)c4c3)cnc2Cl)CC1 ; yields the recorded call
## Output false (0)

## Input For this compound, state the assay outcome: N#Cc1cc(-c2ccc3ncnc(N4CCc5cc(F)c(Cl)cc54)c3c2)cnc1N
## Output false (0)

## Input Please indicate how the test categorized COc1ccc(NC(=O)Cn2c(/C=C/c3cccc(Br)c3)nc3ccccc3c2=O)cc1 .
## Output false (0)

## Input // param item: CN(C)CCOc1ccc(C(=O)C2[C@H](c3ccc(Cl)cc3)[C@@H](c3ccccc3)NC23C(=O)Nc2ccc(Cl)cc23)cc1 (some centres undefined) ; yields the recorded call
## Output true (1)

## Input Which result was noted for this compound in the test: O=C(NC(=S)N1CCN(c2ncnc3c2cnn3-c2ccccc2)CC1)c1ccc(F)cc1
## Output false (0)

## Input Which outcome was assigned to O=C(CSc1nnc(-c2ccc(-c3nc4ccccc4[nH]3)cc2)o1)Nc1ccc(Cl)cc1 in this test?
## Output true (1)

## Input Hi team, can someone confirm the assay call for CC1=C(C(=O)OCc2ccccc2)C(c2ccc(N(C)C)cc2)n2c(nc3ccccc32)N1 (centres undefined) ?
## Output false (0)

## Input What classification did N#C/C(=C/c1ccc([N+](=O)[O-])cc1)c1nnc(NC(=O)c2ccc(-n3c(=O)[nH]c4ccccc4c3=O)cc2)s1 end up with in this test?
## Output false (0)

## Input Hello, I am checking results. What call was entered for CC[C@@]12CC(C(=O)OC)=C3Nc4cc5c(cc4[C@@]34CCN(C[C@H]3O[C@H]31)[C@@H]24)[C@@H]1[C@H](O5)[C@@H](O)[C@@]2(CC)CC(C(=O)OC)=C3Nc4cc(O)ccc4[C@@]34CCN1[C@@H]24 ?
## Output true (1)
